Test system: anaesthetized dog
test.details: Antiangorous activity on anaesthetized dog: consumption of oxygen in the left ventricule and cardiac effort (KATZ's index)
Format: in vivo
test.context: Canis lupus familiaris, iv, 1.25 mg/kg i.v. slow perfusion, read-out: Diminution in consumption of O2
Would you please tag the item met when its inhibition in vivo at 1.25 mg/kg is 40% or above, and not met when it is below?

For orientation, consider the following solved cases.
- compound: "COc1cc(/C=C/C(=O)N2CCN(CC(O)COc3ccc(C(C)=O)c4ccccc34)CC2)cc(OC)c1OC (stereo not drawn)"
  label: "not met"
- compound: "COc1cc(/C=C/C(=O)N2CCN(CC(O)COc3ccc(C(=O)NC4CCCCC4)c4c3OCCO4)CC2)cc(OC)c1OC (stereo not drawn)"
  label: "met"
- compound: "COc1cc(/C=C/C(=O)N2CCN(CCCOc3ccc(C(C)=O)c4c3OCCO4)CC2)cc(OC)c1OC"
  label: "not met"
- compound: "COc1cc(/C=C/C(=O)N2CCN(CC(O)COc3ccc(CO)c4c3OCCO4)CC2)cc(OC)c1OC (stereo not drawn)"
  label: "met"

Next:
**Query** I'd appreciate it if you could say whether COc1cc(/C=C/C(=O)N2CCN(CC(O)COc3ccc(OC)c4c3OCCO4)CC2)cc(OC)c1OC (stereo not drawn) has inhibition in vivo at 1.25 mg/kg at least equal to 40%.
**Result** met
